These entries and their values trace back to the supplement of paper PMC12592484.

Test system: CAF#4 (primary prostate cancer-associated fibroblasts of iCAF-like type)
Assay: drug sensitivity score (DSS2, normalised partial AUC of dose-response, 72 h CellTiter-Glo viability) (DSS (dimensionless)); higher = more sensitive (stronger growth inhibition / cytotoxicity); extreme values may be limits of the assay
Exercise: state measured drug sensitivity score for each of the compounds provided.
I'd appreciate a reply containing only the number, no unit.

Task item: Item NCC(=O)Nc1ccc(-n2nc(C(F)(F)F)cc2-c2ccc3c(ccc4ccccc43)c2)cc1 (tested concentration range 2.5-25000 nM) has what recorded drug sensitivity score?
Reply: 0.8

Task item: Continue with CC1(C)CCC(c2ccc(Cl)cc2)=C(CN2CCN(c3ccc(C(=O)NS(=O)(=O)c4ccc(N[C@H](CCN5CCOCC5)CSc5ccccc5)c(S(=O)(=O)C(F)(F)F)c4)cc3)CC2)C1 [Navitoclax] (tested concentration range 1-10000 nM)
Reply: 7.5

Task item: Continue with CC(C)(C)c1nc(-c2cccc(NS(=O)(=O)c3c(F)cccc3F)c2F)c(-c2ccnc(N)n2)s1 [Dabrafenib] (tested concentration range 0.2-2500 nM)
Reply: 0

Task item: Continue with CC1(C)CNc2cc(NC(=O)c3cccnc3NCc3ccncc3)ccc21 [Motesanib] (tested concentration range 1-10000 nM)
Reply: 0.7

Task item: Continue with CN1CCc2c(c3ccccc3n2Cc2ccc(C(=O)NO)cc2)C1 [Tubastatin A] (tested concentration range 1-10000 nM)
Reply: 2.8

Task item: Continue with O=c1[nH]c(=O)n([C@H]2C[C@H](O)[C@@H](CO)O2)cc1F [Floxuridine] (tested concentration range 1-10000 nM)
Reply: 2
